Each recorded value in this set is attributed to ChEMBL document CHEMBL4261601.

assay: AUC (0 to infinity) in CD-1 mouse at 2 mg/kg, iv; type: ADME, organism-based; design: dose 2 mg/kg, time infinity, route intravenous; conditions: in vivo
readout_name: AUC(0-inf) (ng·h/mL)
Give the number; ng·h/mL is assumed, so skip it.

[ask] Indicate its recorded AUC(0-inf); the compound in question is Cc1noc(C)c1-c1ccc2nc(-c3cnn(CCO)c3)nc(N3CCOCC3c3ccccc3)c2c1 (stereo unspecified)
[reply] 1760

###

biological target: Bromodomain-containing protein 4 (Homo sapiens); test: Displacement of biotinylated acetylated peptide from recombinant human partial length BRD4 long isoform bromodomain 1/2 (N44 to E460 residues) expressed in Escherichia coli BL21 measured after 1 hr by Bromoscan method
readout_name: pKd
pKd is a log-scale quantity: -log10 of the concentration expressed in molar.

| compound | reading |
| --- | --- |
| CN(C)CCN1CCN(c2nc(NCc3cccc(Cl)c3)c3cc(-c4ccn(C)c(=O)c4)ccc3n2)CC1 | 5.15 |
| Cc1noc(C)c1-c1ccc2nc(N3CCN(CCN(C)C)CC3)nc(N3CCCCC3c3ccccc3)c2c1 (stereo not drawn) | 7.22 |
| Cc1noc(C)c1-c1ccc2nc(-c3cnn(CCO)c3)nc(NCc3cccc(Cl)c3)c2c1 | 7.02 |
| Cc1noc(C)c1-c1ccc2nc(N3CCN(CCN(C)C)CC3)nc(N[C@@H](CO)c3ccccc3)c2c1 | 6.89 |

[ask] Please report pKd for the following compound: "Cc1n[nH]c(C)c1-c1ccc2nc(N3CCN(CCN(C)C)CC3)nc(NCc3cccc(Cl)c3)c2c1"
[reply] 5.82

[ask] Identify pKd associated with the compound "Cc1noc(C)c1-c1ccc2nc(N3CCN(CCN(C)C)CC3)nc(NCc3cncc(Cl)c3)c2c1"
[reply] 7.10

[ask] Indicate its recorded pKd; the compound in question is "Cc1noc(C)c1-c1ccc2nc(N3CCN(C)CC3)nc(NCc3cccc(Cl)c3)c2c1"
[reply] 6.85

###

molecular target: Bromodomain-containing protein 2 (Homo sapiens); test: Displacement of biotinylated acetylated peptide from recombinant human partial length BRD2 isoform 1 bromodomain 2 (E348 to D455 residues) expressed in Escherichia coli BL21 measured after 1 hr by Bromoscan method
Sequence (P25440 whole entry, the tested form may be a part, canonical isoform): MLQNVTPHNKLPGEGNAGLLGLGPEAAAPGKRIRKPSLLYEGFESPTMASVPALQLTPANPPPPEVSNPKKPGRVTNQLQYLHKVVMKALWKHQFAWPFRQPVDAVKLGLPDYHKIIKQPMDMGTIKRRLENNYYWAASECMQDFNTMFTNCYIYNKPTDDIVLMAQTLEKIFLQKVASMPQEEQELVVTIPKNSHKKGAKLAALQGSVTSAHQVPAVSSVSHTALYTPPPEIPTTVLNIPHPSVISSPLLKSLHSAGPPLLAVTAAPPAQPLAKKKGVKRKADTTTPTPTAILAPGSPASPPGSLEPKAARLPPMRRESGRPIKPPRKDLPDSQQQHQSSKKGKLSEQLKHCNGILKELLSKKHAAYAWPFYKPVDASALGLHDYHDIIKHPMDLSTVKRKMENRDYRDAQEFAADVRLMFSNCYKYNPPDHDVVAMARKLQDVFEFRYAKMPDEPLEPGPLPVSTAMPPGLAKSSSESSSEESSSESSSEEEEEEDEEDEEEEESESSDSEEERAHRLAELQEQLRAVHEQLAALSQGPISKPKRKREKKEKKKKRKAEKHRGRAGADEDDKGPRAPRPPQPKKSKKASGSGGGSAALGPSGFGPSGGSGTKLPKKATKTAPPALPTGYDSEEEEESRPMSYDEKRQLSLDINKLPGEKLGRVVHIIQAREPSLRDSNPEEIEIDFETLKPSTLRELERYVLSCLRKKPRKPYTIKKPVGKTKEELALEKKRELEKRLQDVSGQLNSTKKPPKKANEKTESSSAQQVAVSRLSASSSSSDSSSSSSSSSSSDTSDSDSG
readout_name: Kd
Hey, just the number and the unit after it is fine.

[ask] Kindly indicate its recorded Kd. Item: "CN(C)CCN1CCN(c2nc(NCc3cccc(Cl)c3)c3cc(-c4ccc(=O)n(C)c4)ccc3n2)CC1"
[reply] 24 nM

###

biological target: Bromodomain-containing protein 4 (Homo sapiens); test: Displacement of biotinylated acetylated peptide from recombinant human partial length BRD4 long isoform bromodomain 1/2 (N44 to E460 residues) expressed in Escherichia coli BL21 measured after 1 hr by Bromoscan method
Consider the cut-off 200 nM. If the recorded Kd is strictly smaller, the label is Met; if not, the label is Not met.

Observe how each entry below is paired with its result.
| compound | assigned_category |
| --- | --- |
| Cc1noc(C)c1-c1ccc2nc(N3CCN(C(=O)CN(C)C)CC3)nc(NCc3cccc(Cl)c3)c2c1 | Met |
| Cc1noc(C)c1-c1ccc2nc(C(=O)NCc3cnn(C)c3)nc(NCc3cccc(Cl)c3)c2c1 | Met |
| COCCn1cc(-c2nc(NCc3cccc(Cl)c3)c3cc(-c4c(C)noc4C)ccc3n2)cn1 | Met |

[ask] Confirm or reject: Kd of "Cc1cc(-c2ccc3nc(N4CCN(CCN(C)C)CC4)nc(NCc4cccc(Cl)c4)c3c2)cnc1O" lies strictly below 200 nM
[reply] Not met

[ask] Threshold test, Kd < 200 nM: Cc1noc(C)c1-c1ccc2nc(N3CCN(CCN(C)C)CC3)nc(N3CCCC3c3ccccc3)c2c1 (centres undefined)
[reply] Not met

[ask] For "CN(C)CCN1CCN(c2nc(NCc3cccc(Cl)c3)c3cc(-c4ccnc(O)c4)ccc3n2)CC1" , is the recorded Kd below the cut-off of 200 nM?
[reply] Not met

###

target: Bromodomain-containing protein 2 (Homo sapiens); experiment: Displacement of biotinylated acetylated peptide from recombinant human partial length BRD2 isoform 1 bromodomain 1 (K71 to N194 residues) expressed in Escherichia coli BL21 measured after 1 hr by Bromoscan method
readout_name: pKd
In simple prose, pKd is minus the logarithm base ten of a concentration in moles per litre.

[ask] Hello, please tell me recorded pKd for this one: "CN(C)CCN1CCN(c2nc(NCc3cccc(Cl)c3)c3cc(-c4ccc(=O)n(C)c4)ccc3n2)CC1"
[reply] 7.48

###

target: Bromodomain-containing protein 3 (Homo sapiens); experiment: Displacement of biotinylated acetylated peptide from recombinant human partial length BRD3 bromodomain 1/2 (P24 to P416 residues) expressed in Escherichia coli BL21 measured after 1 hr by Bromoscan method
Sequence (Q15059 whole entry, the tested form may be a part): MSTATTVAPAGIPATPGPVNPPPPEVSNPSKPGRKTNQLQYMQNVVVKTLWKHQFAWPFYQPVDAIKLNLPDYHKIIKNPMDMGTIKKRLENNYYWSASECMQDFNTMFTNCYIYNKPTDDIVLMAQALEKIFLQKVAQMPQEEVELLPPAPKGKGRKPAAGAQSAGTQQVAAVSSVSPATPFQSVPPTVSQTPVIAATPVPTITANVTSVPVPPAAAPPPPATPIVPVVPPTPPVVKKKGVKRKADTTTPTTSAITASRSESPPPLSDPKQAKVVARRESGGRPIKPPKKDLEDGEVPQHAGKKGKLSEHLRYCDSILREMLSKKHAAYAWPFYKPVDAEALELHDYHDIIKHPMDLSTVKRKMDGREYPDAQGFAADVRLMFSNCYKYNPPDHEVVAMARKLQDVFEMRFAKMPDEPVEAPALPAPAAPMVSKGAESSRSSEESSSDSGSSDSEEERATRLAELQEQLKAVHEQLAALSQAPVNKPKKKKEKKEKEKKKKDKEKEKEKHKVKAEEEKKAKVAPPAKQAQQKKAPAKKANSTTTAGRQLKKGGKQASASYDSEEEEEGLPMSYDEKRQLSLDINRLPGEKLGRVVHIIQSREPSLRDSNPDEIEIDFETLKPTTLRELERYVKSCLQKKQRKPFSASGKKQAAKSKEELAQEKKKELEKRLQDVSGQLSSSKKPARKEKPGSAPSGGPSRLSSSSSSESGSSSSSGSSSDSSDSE
readout_name: Kd (nM)
// return numeric value only (unit: nM, not printed)

[ask] Specify Kd for "CN(C)CCN1CCN(c2nc(NCc3cccc(Cl)c3)c3cc(-c4ccc(=O)n(C)c4)ccc3n2)CC1" , system Bromodomain-containing protein 3 (Homo sapiens).
[reply] 20

###

target: Bromodomain-containing protein 4 (Homo sapiens); assay: Displacement of biotinylated acetylated peptide from recombinant human partial length BRD4 long isoform bromodomain 1 (N44 to E168 residues) expressed in Escherichia coli BL21 measured after 1 hr by Bromoscan method
readout_name: Kd (nM)
The answer is to be given in nM; state only the numeric part.

[ask] Give Kd only, for "CN(C)CCN1CCN(c2nc(NCc3cccc(Cl)c3)c3cc(-c4ccc(=O)n(C)c4)ccc3n2)CC1" , using Bromodomain-containing protein 4 (Homo sapiens) data.
[reply] 18

###

assay: Volume of distribution at steady state in CD-1 mouse at 2 mg/kg, iv measured; type: ADME, organism-based; conditions: in vivo, read-out: Vdss
readout_name: Vd (L/kg)
Provide the reading as a plain figure in L/kg.

[ask] Tell me its Vd given Cc1noc(C)c1-c1ccc2nc(-c3cnn(CCO)c3)nc(N3CCOCC3c3ccccc3)c2c1 (stereo unspecified) as the entry.
[reply] 1.7

###

assay: Half life in CD-1 mouse at 2 mg/kg, iv; assay type: ADME, organism-based; conditions: in vivo
readout_name: half-life (h)
Just the number please, in h, no unit attached.

[ask] Write down half-life measured for item Cc1noc(C)c1-c1ccc2nc(-c3cnn(CCO)c3)nc(N3CCOCC3c3ccccc3)c2c1 (stereo unspecified)
[reply] 3.1

###

Listing of entries alongside the reported log10 Kd.
target: Bromodomain-containing protein 4 (Homo sapiens); assay: Displacement of biotinylated acetylated peptide from recombinant human partial length BRD4 long isoform bromodomain 1/2 (N44 to E460 residues) expressed in Escherichia coli BL21 measured after 1 hr by Bromoscan method
// stored as log10 of Kd expressed in µM

[ask] Using known records, supply log10 Kd for "Cc1noc(C)c1-c1ccc2nc(N3CCN(CCN(C)C)CC3)nc(NCCc3ccc(Cl)cc3)c2c1"
[reply] 0.48

[ask] Specify log10 Kd for "Cc1ccc(NC(=O)c2nc(NCc3cccc(Cl)c3)c3cc(-c4c(C)noc4C)ccc3n2)cn1" and stop.
[reply] -0.21

[ask] Give the reported log10 Kd for this compound. "CN(C)CCN1CCN(c2nc(NCc3cccc(Cl)c3)c3cc(-c4ccc(O)nc4)ccc3n2)CC1"
[reply] -0.26

[ask] // Input: "Cc1noc(C)c1-c1ccc2nc(-c3cnn(CC(N)=O)c3)nc(NCc3cccc(Cl)c3)c2c1" . Output its log10 Kd only.
[reply] -0.89

[ask] Report log10 Kd for "Cc1noc(C)c1-c1ccc2nc(N3CCN(C(=O)CO)CC3)nc(NCc3cccc(Cl)c3)c2c1"
[reply] -1.15

[ask] Look up log10 Kd of "Cc1noc(C)c1-c1ccc2c(NCc3cccc(Cl)c3)nc(N3CCN(CCN(C)C)CC3)nc2c1" and report it.
[reply] -0.21

[ask] Note log10 Kd for the compound shown: "Cc1noc(C)c1-c1ccc2nc(N(C)CCN(C)C)nc(NCc3cccc(Cl)c3)c2c1"
[reply] -0.96

###

Parameter log10(IC50): see the listing below.
system: MV4-11; assay: Cytotoxicity against human MV411 cells after 72 hrs by CellTiter-Glo assay; format: functional, cell-based; settings: MV4-11, 72 h
Record value = log10 of IC50 given in µM.

| compound | log10(IC50) |
| --- | --- |
| Cc1noc(C)c1-c1ccc2nc(Cl)nc(NCc3cccc(Cl)c3)c2c1 | 1.05 |
| Cc1noc(C)c1-c1ccc2nc(C(=O)N3CCN(CCN(C)C)CC3)nc(NCc3cccc(Cl)c3)c2c1 | 0.67 |
| Cc1noc(C)c1-c1ccc2nc(N3CCN(CCN(C)C)CC3)nc(NCCc3ccc(Cl)cc3)c2c1 | 0.82 |
| Cc1noc(C)c1-c1ccc2[nH]c(=O)cc(NCc3cccc(Cl)c3)c2c1 | 0.26 |
| Cc1noc(C)c1-c1ccc2nc(N3CCN(C)CC3)nc(NCc3cccc(Cl)c3)c2c1 | 0.20 |
| Cc1noc(C)c1-c1ccc2nc(N3CCN(C(=O)CN(C)C)CC3)nc(NCc3cccc(Cl)c3)c2c1 | 0.09 |
| Cc1noc(C)c1-c1ccc2nc(N3CCN(CCCN(C)C)CC3)nc(NCc3cccc(Cl)c3)c2c1 | 0.37 |
| Cc1noc(C)c1-c1ccc2nc(C(=O)NCc3cccnc3)nc(NCc3cccc(Cl)c3)c2c1 | 0.16 |
| Cc1noc(C)c1-c1ccc2nc(C(=O)NC3CCN(C)CC3)nc(NCc3cccc(Cl)c3)c2c1 | 0.01 |
| Cc1noc(C)c1-c1ccc2nc(C(=O)NCc3cnn(C)c3)nc(NCc3cccc(Cl)c3)c2c1 | 0.10 |

[ask] Report measured log10(IC50) on MV4-11; entry: Cc1noc(C)c1-c1ccc2nc(N3CCN(CCN(C)C)CC3)nc(N3CCOCC3c3ccccc3)c2c1 (stereo unspecified)
[reply] 0.26

[ask] State, for MV4-11, measured log10(IC50) of the compound listed here: "Cc1noc(C)c1-c1ccc2nc(-c3cnn(CCN(C)C)c3)nc(NCc3cccc(Cl)c3)c2c1"
[reply] 0.12

[ask] // fetch log10(IC50); item: "CN(C)CCN1CCN(c2nc(NCc3cccc(Cl)c3)c3cc(-c4ccn(C)c(=O)c4)ccc3n2)CC1" ; system: MV4-11
[reply] 0.84

[ask] # return log10(IC50) of "Cc1noc(C)c1-c1ccc2nc(N3CCCN(CCN(C)C)CC3)nc(NCc3cccc(Cl)c3)c2c1" (system: MV4-11)
[reply] 0.32

[ask] Under MV4-11, report log10(IC50) for "Cc1noc(C)c1-c1ccc2nc(N3CCN(CCN(C)C)CC3)nc(NC3(c4cccc(Cl)c4)CC3)c2c1"
[reply] 0.20

[ask] Please indicate recorded log10(IC50) of "Cc1noc(C)c1-c1ccc2nc(C(=O)NC3CCOCC3)nc(NCc3cccc(Cl)c3)c2c1" measured with MV4-11.
[reply] 0.45
